Target: 5'-AMP-activated protein kinase catalytic subunit alpha-2 (Homo sapiens) (UniProt P54646)
Sequence (P54646 whole entry, looked up): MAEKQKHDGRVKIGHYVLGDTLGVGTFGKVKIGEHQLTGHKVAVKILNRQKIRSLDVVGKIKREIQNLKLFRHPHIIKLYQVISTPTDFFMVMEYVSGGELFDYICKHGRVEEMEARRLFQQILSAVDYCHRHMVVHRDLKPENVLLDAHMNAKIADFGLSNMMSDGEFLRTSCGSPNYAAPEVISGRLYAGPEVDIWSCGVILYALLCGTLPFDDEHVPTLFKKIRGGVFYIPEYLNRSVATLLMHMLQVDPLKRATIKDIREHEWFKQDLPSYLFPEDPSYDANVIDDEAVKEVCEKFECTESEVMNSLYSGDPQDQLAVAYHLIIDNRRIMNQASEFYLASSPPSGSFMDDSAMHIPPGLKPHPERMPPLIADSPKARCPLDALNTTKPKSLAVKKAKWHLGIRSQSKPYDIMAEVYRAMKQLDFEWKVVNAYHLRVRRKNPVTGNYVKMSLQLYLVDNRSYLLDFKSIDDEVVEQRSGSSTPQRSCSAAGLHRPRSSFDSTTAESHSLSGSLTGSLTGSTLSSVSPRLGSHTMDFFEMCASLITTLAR
Conditions: at 1 µM
Description: GSK_PKIS: AMPKA2 (A2B1G1) mean inhibition at 1 uM [Nanosyn]
Known inhibition of a selection of molecules
Please respond with the number in % and leave the unit unwritten.

O=C1Nc2ccc(C(=O)c3ccco3)cc2C1=Cc1cc(Cl)c(O)c(Cl)c1: 10.8
CCn1c(-c2nonc2N)nc2cncc(C(=O)N3CCNCC3)c21: 3.25
Nc1nc(-c2ccc3c(c2)C(=Cc2cc(Br)c(O)c(Br)c2)C(=O)N3)cs1: 1.63
CS(=O)(=O)CCN(CC#N)Cc1ccc(-c2ccc3ncnc(Nc4ccc(OCc5cccc(F)c5)c(Cl)c4)c3c2)o1: -0.61

Okay, now this molecule:
Report inhibition for `NC(=O)c1ccc(-c2nc(-c3ccccn3)c(-c3ccc4c(c3)OCO4)[nH]2)cc1` please.
2.23

====

Biological target: Receptor-type tyrosine-protein kinase FLT3 (Homo sapiens)
Conditions: at 0.1 µM
Known inhibition of a selection of compounds
Please respond with the number in % and leave the unit unwritten.

COc1cc2ncn(-c3cc(OCc4ccccc4Cl)c(C(N)=O)s3)c2cc1OC: 0.85
COc1cc2ncn(-c3cc(O[C@@H](C)c4ccccc4Cl)c(C(N)=O)s3)c2cc1OC: 5.29
COc1ccc2cc(-c3c(-c4ccncc4)nc(-c4ccc([S+](C)[O-])cc4)n3C)ccc2c1 (stereo not given): 1.98
Cc1ccc(C(=O)NC2CCCCC2)cc1-c1ccc(C(=O)NCC2CC2)cc1: 0.22
Cn1cc(C=C2C(=O)Nc3cccnc32)c2ccccc21: 20.3

Receptor-type tyrosine-protein kinase FLT3 (Homo sapiens) / inhibition / `COc1cc2ncn(-c3cc(OCc4ccccc4C(F)(F)F)c(C(N)=O)s3)c2cc1OC` : value?;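 further: mean inhibition value from the GSK PKIS kinase screening set, with the assay run by Nanosyn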
0.06

Please answer likewise for `Cc1cccc(-c2n[nH]cc2-c2ccc3ncccc3n2)n1`
-1.33

Please answer likewise for `COc1cc2c(cc1Nc1nc(N3CCc4ccccc43)c3cc[nH]c3n1)N(C(=O)CN(C)C)CC2`
0.56

Please answer likewise for `CC(=O)Nc1cccc(C#Cc2cncnc2Nc2ccc(OCc3cccc(F)c3)c(Cl)c2)n1`
-2.34

Please answer likewise for `Cc1ccc(NC(=O)c2ccnc(N3CCCC3)c2)cc1-c1ccc(C(=O)NCC2CC2)cc1`
1.08

====

Known inhibition of a selection of molecules
Biological target: Protein kinase C beta type (Homo sapiens);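 further: measured against the PKC-beta2 splice variant, with values reported as mean percent inhibition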
Settings: at 0.1 µM
Description: GSK_PKIS: PKC-beta2 (splice variant) mean inhibition at 0.1 uM [Nanosyn]
Please respond with the number in % and leave the unit unwritten.

Nc1nc(-c2ccc3c(c2)C(=Cc2cc(Br)c(O)c(Br)c2)C(=O)N3)cs1: -0.52
c1cnn2ncc(-c3ccnc(Nc4ccc5c(c4)OCCO5)n3)c2c1: 0.79
CC1=C(C(=O)Nc2ccc3[nH]ncc3c2)C(c2ccc3ccccc3c2)CC(=O)N1 (stereo not given): 0.83
Cc1ccc(NC(=O)c2ccnc(N3CCCC3)c2)cc1-c1ccc(C(=O)NCC2CC2)cc1: 1.24
NCc1ccc(-c2nc(-c3ccc(Cl)c(O)c3)c(-c3ccncc3)[nH]2)cc1: 0.76
CCn1c(-c2nonc2N)nc2cncc(C(=O)N3CCNCC3)c21: 1.85
CCn1c(-c2nonc2N)nc2c(N3CCCC3)nccc21: -1.87
CS(=O)(=O)CCNCc1ccc(-c2ccc3ncnc(Nc4ccc(OCc5cccc(F)c5)c(C(F)(F)F)c4)c3c2)o1: 1.67
CN1CCC(C(=O)Nc2n[nH]c3nnc(-c4ccccc4)cc23)CC1: 1.32

Okay, now this molecule:
Report inhibition for `Cc1cccc(-c2n[nH]cc2-c2ccc3ncccc3n2)n1` please.
0.52
